# procedure_details: Midazolam PK when administered with midostaurin
# cond: human, plasma, oral, C max, adjusted geometric mean, plasma; Midazolam + midostaurin (day 3), n = 18
measured_endpoint: Cmax (ng/mL)
The reply should contain only the number, in ng/mL.

[Q] So what does the record say about Cmax for `Cc1ncc2n1-c1ccc(Cl)cc1C(c1ccccc1F)=NC2` ?
[A] 11

###

# procedure_details: Midostaurin PK when administered with ketoconazole
# cond: human, plasma, oral, AUC0–inf, adjusted geometric mean, plasma; Placebo + midostaurin arm (midostaurin 50 mg once), ketoconazole study, n = 18
# Protocol: According to the US Food and Drug Administration, ketoconazole 400 mg once daily is the recommended dose to evaluate DDIs involving CYP3A4 inhibition. [drawing 1] Adverse events (AEs) were recorded during the study and up to 1 month (28 days) after the end of study. Volunteers remained at the clinic until AEs were common toxicity criteria (CTC) grade ≤1. A point estimate and the corresponding 90 % CI for the treatment effect were calculated for the test treatment compared with the reference. […]
measured_endpoint: AUC(0-inf) (ng·h/mL)
The reply should contain only the number, in ng·h/mL.

[Q] So what does the record say about AUC(0-inf) for CO[C@@H]1[C@H](N(C)C(=O)c2ccccc2)C[C@H]2O[C@]1(C)n1c3ccccc3c3c4c(c5c6ccccc6n2c5c31)C(=O)NC4 [Midostaurin] ?
[A] 19800

###

# procedure_details: Midostaurin PK when administered with rifampicin
# cond: human, plasma, oral, C max, adjusted geometric mean, plasma; Rifampicin + midostaurin arm, n = 20
measured_endpoint: Cmax (ng/mL)
The reply should contain only the number, in ng/mL.

[Q] So what does the record say about Cmax for `CO[C@@H]1[C@H](N(C)C(=O)c2ccccc2)C[C@H]2O[C@]1(C)n1c3ccccc3c3c4c(c5c6ccccc6n2c5c31)C(=O)NC4` ?
[A] 440

[Q] So what does the record say about Cmax for CO[C@@H]1[C@H](N(C)C(=O)c2ccccc2)C[C@H]2O[C@]1(C)n1c3ccccc3c3c4c(c5c6ccccc6n2c5c31)C(=O)NC4O (mixture of isomers) ?
[A] 128

###

# procedure_details: Midazolam PK when administered with midostaurin
# cond: human, plasma, oral, 4 mg, AUC0–last, adjusted geometric mean, plasma; Midazolam (day 8), n = 18
measured_endpoint: AUC(0-t) (ng·h/mL)
The reply should contain only the number, in ng·h/mL.

[Q] So what does the record say about AUC(0-t) for `Cc1ncc2n1-c1ccc(Cl)cc1C(c1ccccc1F)=NC2` ?
[A] 40.8

###

# procedure_details: Midazolam PK when administered with midostaurin
# cond: human, plasma, oral, AUC0–last, adjusted geometric mean, plasma; Midazolam + midostaurin (day 3), n = 18
measured_endpoint: AUC(0-t)
Please append the unit to your numeric answer.

[Q] So what does the record say about AUC(0-t) for `Cc1ncc2n1-c1ccc(Cl)cc1C(c1ccccc1F)=NC2` ?
[A] 40.2 ng·h/mL

###

# procedure_details: Midazolam PK when administered with midostaurin
# cond: human, plasma, oral, AUC0–inf, adjusted geometric mean, plasma; Midazolam + midostaurin (day 3), midazolam 4 mg + midostaurin 100 mg, n = 18
measured_endpoint: AUC(0-inf) (ng·h/mL)
The reply should contain only the number, in ng·h/mL.

[Q] So what does the record say about AUC(0-inf) for `Cc1ncc2n1-c1ccc(Cl)cc1C(c1ccccc1F)=NC2` ?
[A] 49.6

###

# procedure_details: Midostaurin PK when administered with rifampicin
# cond: human, plasma, oral, t max, median, plasma; Rifampicin + midostaurin arm, n = 20
measured_endpoint: Tmax
Please append the unit to your numeric answer.

[Q] So what does the record say about Tmax for CO[C@@H]1[C@H](N(C)C(=O)c2ccccc2)C[C@H]2O[C@]1(C)n1c3ccccc3c3c4c(c5c6ccccc6n2c5c31)C(=O)NC4O (mixture of isomers) [CGP52421] ?
[A] 2.51 h

These measurements were taken from paper PMC3834177.
